The measurements presented in this section are drawn from ChEMBL document CHEMBL3797123.

# EC50 values compiled below
System: HeLa
Test: Cytotoxicity against human HeLa cells after 96 hrs by SRB assay
Format: functional, cell-based

{"compound": "C=C(C)[C@@H]1CC[C@]2(COC(=O)NCCC)CC[C@]3(C)[C@H](CC[C@@H]4[C@@]5(C)CC[C@H](OC(=O)C(N)=O)C(C)(C)[C@@H]5CC[C@]43C)[C@@H]12", "limitOperator": "=", "EC50 / µM": 12.8}
{"compound": "C=C(C)[C@@H]1CC[C@]2(COC(=O)NCCCCCC)CC[C@]3(C)[C@H](CC[C@@H]4[C@@]5(C)CC[C@H](OC(=O)C(N)=O)C(C)(C)[C@@H]5CC[C@]43C)[C@@H]12", "limitOperator": "=", "EC50 / µM": 10.1}
{"compound": "C=C(C)[C@@H]1CC[C@]2(COC(C)=O)CC[C@]3(C)[C@H](CC[C@@H]4[C@@]5(C)CC[C@H](OC(C)=O)C(C)(C)[C@@H]5CC[C@]43C)[C@@H]12 [BETULIN DIACETATE]", "limitOperator": ">", "EC50 / µM": 30}
{"compound": "C=C(C)[C@@H]1CC[C@]2(CO)CC[C@]3(C)[C@H](CC[C@@H]4[C@@]5(C)CC[C@H](O)C(C)(C)[C@@H]5CC[C@]43C)[C@@H]12 [BETULIN]", "limitOperator": ">", "EC50 / µM": 30}
{"compound": "C=C(C)[C@@H]1CC[C@]2(COC(=O)NCC)CC[C@]3(C)[C@H](CC[C@@H]4[C@@]5(C)CC[C@H](OC(=O)C(N)=O)C(C)(C)[C@@H]5CC[C@]43C)[C@@H]12", "limitOperator": "=", "EC50 / µM": 14.1}
{"compound": "C=C(C)[C@@H]1CC[C@]2(COC(=O)NCCCC)CC[C@]3(C)[C@H](CC[C@@H]4[C@@]5(C)CC[C@H](OC(=O)C(N)=O)C(C)(C)[C@@H]5CC[C@]43C)[C@@H]12", "limitOperator": "=", "EC50 / µM": 11.2}
{"compound": "C=C(C)[C@@H]1CC[C@]2(CO)CC[C@]3(C)[C@H](CC[C@@H]4[C@@]5(C)CC[C@H](OC(C)=O)C(C)(C)[C@@H]5CC[C@]43C)[C@@H]12", "limitOperator": ">", "EC50 / µM": 30}
{"compound": "C=C(C)[C@@H]1CC[C@]2(C(=O)O)CC[C@]3(C)[C@H](CC[C@@H]4[C@@]5(C)CC[C@H](O)C(C)(C)[C@@H]5CC[C@]43C)[C@@H]12 [BETULINIC ACID]", "limitOperator": "=", "EC50 / µM": 8.8}
{"compound": "C=C(C)[C@@H]1CC[C@]2(COC(=O)Nc3ccccc3)CC[C@]3(C)[C@H](CC[C@@H]4[C@@]5(C)CC[C@H](OC(=O)C(N)=O)C(C)(C)[C@@H]5CC[C@]43C)[C@@H]12", "limitOperator": "=", "EC50 / µM": 10.5}
